System: K-562 leukemia
Test name: NCI tumour cell line growth inhibition, 48 h; in the data active = GI50 below about 0.43 µM; inactive = the rest
Valid outcomes are listed here; reply with one: true for active, false for inactive

Input: Entry NS(=O)(=O)N(c1cc(C(F)(F)F)cc(C(F)(F)F)c1)C1CCN(Cc2ccc(C(F)(F)F)cc2)CC1 : call = ?
Output: true

Input: And what about the molecule CCOC(=O)c1ccc(NC(=O)Nc2nccs2)cc1 ?
Output: true

Input: Same lookup for CN(CCO)C1CCN(c2ccc(Nc3ncc4c5ccnc(F)c5n(C5CCCC5)c4n3)nc2)CC1 , please.
Output: false

Input: Next record, please: Cc1ccc2c(NCCCN(C)C)c3c(C)nn(C)c3nc2c1
Output: false

Input: Another molecule: O=c1ccc(N=Nc2ccccc2)ccc1Cl
Output: false

Where do these numbers come from? They come from PubChem BioAssay (NCI).
